Just for reference, ChEMBL document CHEMBL3351364 is where these values come from.

Cmax values for the compounds below.
Test: Cmax in Sprague-Dawley rat at 3 mg/kg, po
Type: ADME, organism-based
Design: dose 3 mg/kg, route oral
Conditions: in vivo
Answer format: numeric, nM implied, no suffix.

smiles_data=COC(=O)N[C@H](C(=O)N1CCC[C@H]1c1ncc(-c2ccc(-c3ccc(-c4cnc([C@@H]5CCCN5C(=O)[C@@H](NC(=O)OC)C(C)C)[nH]4)cc3)cc2)[nH]1)C(C)C endpoint_result=728

Specify reported Cmax for the compound shown: `COC(=O)N[C@@H](C(=O)N1CCC[C@H]1C(=O)Nc1ccc([C@H]2CC[C@@H](c3ccc(NC(=O)[C@@H]4CCCN4C(=O)[C@H](NC(=O)OC)C(C)C)cc3)N2c2ccc(C(C)(C)C)cc2)cc1)C(C)C`
3360
